Molecular target: cynomolgus serum albumin (cynomolgus, UniProt A2V9Z4 25-608)
Sequence (A2V9Z4 25-608 limits assumed): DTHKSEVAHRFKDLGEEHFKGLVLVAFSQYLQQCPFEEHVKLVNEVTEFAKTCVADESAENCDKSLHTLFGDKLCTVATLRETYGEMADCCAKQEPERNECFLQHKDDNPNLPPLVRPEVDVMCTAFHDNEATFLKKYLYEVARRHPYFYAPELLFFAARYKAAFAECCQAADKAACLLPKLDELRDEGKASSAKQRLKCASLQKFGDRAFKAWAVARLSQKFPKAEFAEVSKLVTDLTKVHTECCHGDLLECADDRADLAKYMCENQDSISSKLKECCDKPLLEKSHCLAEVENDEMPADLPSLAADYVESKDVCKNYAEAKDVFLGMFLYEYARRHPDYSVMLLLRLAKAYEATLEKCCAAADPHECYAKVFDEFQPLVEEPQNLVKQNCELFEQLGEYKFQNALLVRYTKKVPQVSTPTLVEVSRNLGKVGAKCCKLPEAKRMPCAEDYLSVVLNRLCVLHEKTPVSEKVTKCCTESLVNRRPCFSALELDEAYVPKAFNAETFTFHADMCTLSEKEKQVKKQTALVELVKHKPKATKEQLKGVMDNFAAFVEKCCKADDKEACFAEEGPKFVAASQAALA
Assay: Octet HTX (ForteBio), HCAb on AHC sensor, 1:1 fit
Parameter measured: koff (s⁻¹)
Just the number please, in s⁻¹, no unit attached.

Task: Consider the binder CNG-HSA-104 (VHH) VHH: KVQLLESGGGLVQPGGSLRLSCAASGFTFHSFGMSWVRQAPGKGLEWVSSISGSGSDTLYADSVKGRFTISRDNSKNTLYLQMNSLRPEDTAVYYCTIGGSLSRSSQGTLVTVSS and give its measured koff.
Output: 0.000874

Task: # input binder: CNG-HSA-118 (VHH) VHH: KVQLVESGGGLVQPGNSLRLSCAASGFTFSSFGMSWVRQAPGKGLEWVSSISGGGSDTLYADSVRGRFTISRDNSKNTLYLQMNSLRAEDTAVYYCTIGGSLRASSQGTLVTVSS ; wanted: its koff
Output: 0.00102
